target: POLRMT (Homo sapiens, UniProt O00411); assay: homogeneous TR-FRET assay of mitochondrial transcription (inhibition of POLRMT); type: biochemical; settings: isoquinolinone compounds (Table 1)
Sequence (O00411 42-1230): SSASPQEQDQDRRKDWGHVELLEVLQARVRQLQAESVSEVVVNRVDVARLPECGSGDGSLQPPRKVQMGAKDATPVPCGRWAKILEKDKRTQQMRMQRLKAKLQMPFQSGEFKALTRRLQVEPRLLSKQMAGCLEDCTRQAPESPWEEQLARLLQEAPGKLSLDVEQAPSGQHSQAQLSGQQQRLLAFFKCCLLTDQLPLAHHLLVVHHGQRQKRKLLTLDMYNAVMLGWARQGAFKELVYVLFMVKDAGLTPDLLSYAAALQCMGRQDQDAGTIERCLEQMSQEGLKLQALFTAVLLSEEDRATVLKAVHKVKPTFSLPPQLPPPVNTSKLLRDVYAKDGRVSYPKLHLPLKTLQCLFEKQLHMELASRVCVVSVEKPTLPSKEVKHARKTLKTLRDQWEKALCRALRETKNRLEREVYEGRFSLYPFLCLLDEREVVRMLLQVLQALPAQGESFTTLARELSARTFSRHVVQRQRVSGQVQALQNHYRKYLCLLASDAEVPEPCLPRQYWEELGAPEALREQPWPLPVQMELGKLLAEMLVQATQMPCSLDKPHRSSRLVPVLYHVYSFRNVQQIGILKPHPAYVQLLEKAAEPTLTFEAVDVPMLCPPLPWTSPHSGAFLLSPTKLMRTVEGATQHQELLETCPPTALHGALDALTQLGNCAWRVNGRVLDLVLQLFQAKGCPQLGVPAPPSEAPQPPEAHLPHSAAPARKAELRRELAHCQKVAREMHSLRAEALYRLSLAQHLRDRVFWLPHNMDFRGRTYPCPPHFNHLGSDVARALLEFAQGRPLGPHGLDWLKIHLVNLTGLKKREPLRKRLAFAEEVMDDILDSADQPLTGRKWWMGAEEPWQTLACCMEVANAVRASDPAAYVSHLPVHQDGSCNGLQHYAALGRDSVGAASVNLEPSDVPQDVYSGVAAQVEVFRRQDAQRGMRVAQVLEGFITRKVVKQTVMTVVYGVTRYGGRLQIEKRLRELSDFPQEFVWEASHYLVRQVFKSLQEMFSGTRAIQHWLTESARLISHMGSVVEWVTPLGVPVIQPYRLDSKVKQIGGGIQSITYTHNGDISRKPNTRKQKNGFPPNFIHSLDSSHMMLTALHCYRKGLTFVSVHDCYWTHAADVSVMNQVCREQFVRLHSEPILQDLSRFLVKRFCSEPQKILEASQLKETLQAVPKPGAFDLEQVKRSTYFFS
Kindly state IC50 for each of the entries shown.
One number for each entry, in nM.

The cases that follow already have their IC50 on record.
{"columns": ["compound", "IC50, nM"],
 "data": [
  ["Cc1ccccc1-c1c[nH]c(=O)c2cc(O[C@H](C)C(=O)N3CCCC(S(C)(=O)=O)C3)ccc12 (single isomer, unassigned) [Example 97]", 300],
  ["COCC(Oc1ccc2c(-c3ccccc3C)c[nH]c(=O)c2c1)C(=O)N(C)C (single isomer, unassigned) [Example 55]", 2000]
]}

In the following, a different compound is considered.
Task: Note down IC50 recorded for CC(C#N)Oc1ccc2c(-c3ccccc3Cl)c[nH]c(=O)c2c1 (single isomer, unassigned) [Example 58]
Output: 2000
